Each entry below carries its reported ED50.
test: Reduction of food intake in fasted rats, intraperitoneal (IC50 from dose-response curve); type: in vivo, rat; conditions: Rattus norvegicus, ip, 1 h, read-out: Activity LOG (IC50), reduction of food intake
Where a name gives a salt, the structure may show the parent alone.
measure: ED50 (µmol/kg)

# molecule, measure, endpoint_result
rows = [
    ("COc1ccc2[nH]c3c(c2c1)CCNC3 [Compound 2, 6-methoxy-1,2,3,4-tetrahydro-β-carboline]", "ED50", 0.0162),
    ("Fc1ccc2[nH]c3c(c2c1)CCNC3 [Compound 4, hydrochloride]", "ED50", 0.0257),
    ("c1ccc2c3c([nH]c2c1)CNCC3 [Compound 1, 1,2,3,4-tetrahydro-β-carboline]", "ED50", 0.0145),
    ("Clc1ccc2[nH]c3c(c2c1)CCNC3 [Compound 8, hydrochloride]", "ED50", 0.0347),
    ("Fc1ccc2c3c([nH]c2c1)CNCC3 [Compound 5, hydrochloride]", "ED50", 0.0214),
]
